Tested on: MDA-MB-231 breast cancer cell
Assay: MTT cell viability assay, MDA-MB-231 breast cancer cell
Format: cell-based, human
Details: MDA-MB-231, treated 72 hours; read-out: IC50 72 hours
pIC50: −log10 of the molar value.
Items are presented alongside their recorded pIC50.
measured.quantity: pIC50

                                   compound  measured_quantity  quantitative_result
0  CCC(CO)(CO)C(=O)Oc1cc(/C=C/C(=O)/C=C(O)/C=C/c2ccc(OC)c(O)c2)ccc1OC              pIC50                 5.41
1  COc1cc(/C=C/C(=O)C(Cc2ccccc2)(Cc2ccccc2)C(=O)/C=C/c2ccc(OC(=O)C(C)(CO)CO)c(OC)c2)ccc1OC(=O)C(C)(CO)CO [Compound 35c]              pIC50                 5.68
2  CCC(CO)(CO)C(=O)Oc1ccc(/C=C/C(=O)/C=C(O)/C=C/c2ccc(OC(=O)C(CC)(CO)CO)c(OC)c2)cc1OC [Compound 22a]              pIC50                 5.70
3  CC(CO)(CO)C(=O)Oc1ccc(/C=C/C(=O)C(C)(C)C(=O)/C=C/c2ccc(OC(=O)C(C)(CO)CO)cc2)cc1              pIC50                 5.53
4  O=C(/C=C/c1ccc(O)cc1)CC(=O)/C=C/c1ccc(O)cc1 [Bisdemethoxycurcumin, bisdemethoxycurcumin, reference compound]              pIC50                 4.56

---

System: HCT-116 colon cancer cell
Assay: MTT cell viability assay, HCT-116 colon cancer cell
Type: cell-based
Conditions: Homo sapiens; HCT-116, treated 72 hours; read-out: IC50 72 hours
measured.quantity: log10(IC50) (log10 of the value in µM)

>>> print(df.to_string())
                                   compound  quantitative_result
0  CCOc1cc(/C=C/C(=O)/C=C(O)/C=C/c2ccc(OC(=O)C(C)(CO)CO)c(OCC)c2)ccc1OC(=O)C(C)(CO)CO [Compound 26]                 0.58
1  COc1cc(/C=C/C(O)=C/C(=O)/C=C/c2ccc(OC(=O)C(C)(CO)CO)c(OC)c2)ccc1O [Compound 21b]                 1.19
2  CC(CO)(CO)C(=O)Oc1ccc(/C=C/C(=O)/C=C(O)/C=C/c2ccc(O)cc2)cc1 [Compound 23b]                 0.68
3  C#CCC(CC#C)(C(=O)/C=C/c1ccc(OC(=O)C(C)(CO)CO)c(OC)c1)C(=O)/C=C/c1ccc(OC(=O)C(C)(CO)CO)c(OC)c1 [Compound 35d]                 0.59
4  COc1cc(/C=C/C(=O)CC(=O)/C=C/c2ccc(OC(=O)C(CO)(CO)COC(=O)C(CO)(CO)CO)c(OC)c2)ccc1O [Compound 38b]                 1.64

---

Tested on: MDA-MB-231 breast cancer cell
Assay: MTT cell viability assay, MDA-MB-231 breast cancer cell
Format: cell-based, human
Settings: Homo sapiens, MDA-MB-231, 48 h, MDA-MB-231, treated 48 hours; read-out: IC50 48 hours
Recorded IC50 for the following compounds
measured.quantity: IC50 (µM)

>>> print(df.to_string())
                                   compound  quantitative_result
0  CCC(CO)(CO)C(=O)Oc1ccc(/C=C/C(=O)/C=C(O)/C=C/c2ccc(O)c(OC)c2)cc1OC [Compound 22b]                 7.55
1  COc1cc(/C=C/C(O)=C/C(=O)/C=C/c2ccc(OC(=O)C(C)(CO)CO)c(OC)c2)ccc1O [Compound 21b]                 9.97
2  CCc1cc(/C=C/C(=O)CC(=O)/C=C/c2cc(CC)c(OC(=O)C(C)(CO)CO)c(CC)c2)cc(CC)c1OC(=O)C(C)(CO)CO                  7.4

---

Tested on: PC3 prostate cancer cell
Experiment: MTT cell viability assay, PC3 prostate cancer cell
Assay type: cell-based
Conditions: PC-3, treated 48 hours; read-out: IC50 48 hours
pIC50: −log10 of the molar value.
Reported pIC50 is given for each of the following compounds.
measured.quantity: pIC50

                                   compound  measured_quantity  quantitative_result
0  COc1ccc(/C=C/C(O)=C/C(=O)/C=C/c2ccc(OC(=O)C(C)(CO)CO)c(OC)c2)cc1OC              pIC50                 5.11
1  CCC(CO)(CO)C(=O)Oc1ccc(/C=C/C(=O)/C=C(O)/C=C/c2ccc(O)c(OC)c2)cc1OC [Compound 22b]              pIC50                 4.84
2  CCOc1cc(/C=C/C(=O)/C=C(O)/C=C/c2ccc(OC(=O)C(CC)(CO)CO)c(OCC)c2)ccc1OC(=O)C(CC)(CO)CO              pIC50                 5.35
3  COc1cc(/C=C/C(=O)/C=C(O)/C=C/c2ccc(OC(=O)C(C)(CO)CO)c(OC)c2)ccc1OC(=O)C(C)(CO)CO [Compound 21a]              pIC50                 5.22

---

Tested on: PC3 prostate cancer cell
Experiment: MTT cell viability assay, PC3 prostate cancer cell
Assay type: cell-based
Settings: PC-3, treated 24 hours; read-out: IC50 24 hours
measured.quantity: IC50

                                   molecule               system_name  measured_quantity    result
0  COc1cc(/C=C/C(=O)C(CO)(CO)C(=O)/C=C/c2ccc(OC(=O)C(C)(CO)CO)c(OC)c2)ccc1OC(=O)C(C)(CO)CO [Compound 40]  PC3 prostate cancer cell               IC50  > 100 µM
1  O=C(/C=C/c1ccc(O)cc1)CC(=O)/C=C/c1ccc(O)cc1 [Bisdemethoxycurcumin, bisdemethoxycurcumin, reference compound]  PC3 prostate cancer cell               IC50  > 100 µM
2  COc1cc(/C=C/C(=O)CC(=O)/C=C/c2ccc(OC(=O)C(CO)(CO)COC(=O)C(CO)(CO)CO)c(OC)c2)ccc1O [Compound 38b]  PC3 prostate cancer cell               IC50  ≥ 100 µM

---

System: PC3 prostate cancer cell
Assay: MTT cell viability assay, PC3 prostate cancer cell
Assay type: cell-based
Settings: PC-3, treated 48 hours; read-out: IC50 48 hours
measured.quantity: IC50 (µM)

>>> print(df.to_string())
                                   compound  quantitative_result
0  CC(CO)(CO)C(=O)Oc1ccc(/C=C/C(=O)/C=C(O)/C=C/c2ccc(O)cc2)cc1 [Compound 23b]                   11
1  CCC(CO)(CO)C(=O)Oc1cc(/C=C/C(=O)/C=C(O)/C=C/c2ccc(OC)c(O)c2)ccc1OC [Compound 25]                 8.74
2  C#CCC(CC#C)(C(=O)/C=C/c1ccc(OC(=O)C(C)(CO)CO)c(OC)c1)C(=O)/C=C/c1ccc(OC(=O)C(C)(CO)CO)c(OC)c1 [Compound 35d]                 11.5
3  CC(CO)(CO)C(=O)Oc1ccc(/C=C/C(=O)C(C)(C)C(=O)/C=C/c2ccc(OC(=O)C(C)(CO)CO)cc2)cc1 [Compound 36]                 7.49
4  CCc1cc(/C=C/C(=O)CC(=O)/C=C/c2cc(CC)c(OC(=O)C(C)(CO)CO)c(CC)c2)cc(CC)c1OC(=O)C(C)(CO)CO [Compound 31]                 7.49
5  COc1cc(/C=C/C(=O)C(Cc2ccccc2)(Cc2ccccc2)C(=O)/C=C/c2ccc(OC(=O)C(C)(CO)CO)c(OC)c2)ccc1OC(=O)C(C)(CO)CO [Compound 35c]                 9.09
6  CC(CO)(CO)C(=O)Oc1ccc(/C=C/C(=O)/C=C(O)/C=C/c2ccc(OC(=O)C(C)(CO)CO)cc2)cc1 [Compound 23a]                 8.77
7  CCOc1cc(/C=C/C(=O)/C=C(O)/C=C/c2ccc(OC(=O)C(C)(CO)CO)c(OCC)c2)ccc1OC(=O)C(C)(CO)CO [Compound 26]                 9.53
